Biological target: HLA-A*69:01
Experiment: IEDB peptide-MHC binding, purified MHC/competitive/fluorescence; filed as Kd, often an IC50 or EC50 that approximates it; bounds were set here for any values at or beyond the usual limits of such assays
Conditions: source organism: Vibrio vulnificus CMCP6
reportedProperty: Kd

Inquiry: Reported Kd for LEMNDAPTA : what is it?
Reply text: ≥ 20 µM

====

Target: HLA-B*27:05
Test: IEDB peptide-MHC binding, purified MHC/direct/fluorescence; filed as Kd, often an IC50 or EC50 that approximates it; bounds were set here for any values at or beyond the usual limits of such assays
Conditions: source organism: Orthohantavirus andesense
reportedProperty: Kd

Inquiry: Tell me the measured Kd of SIKFKRKLM , please.
Reply text: ≥ 20 µM

====

Molecular target: HLA-A*11:01
Assay: IEDB peptide-MHC binding, purified MHC/direct/fluorescence; filed as Kd, often an IC50 or EC50 that approximates it; bounds were set here for any values at or beyond the usual limits of such assays
Conditions: source organism: Salmonella enterica subsp. enterica serovar Typhi
reportedProperty: pKd
Reminder that pKd means the negative base-10 logarithm of the concentration expressed in mol/L.

Inquiry: // query pKd value for entry EHFYWGSVF
Reply text: 5.10

====

Molecular target: HLA-A*31:01
Test: IEDB peptide-MHC binding, purified MHC/direct/fluorescence; filed as Kd, often an IC50 or EC50 that approximates it; bounds were set here for any values at or beyond the usual limits of such assays
Settings: source organism: Vibrio vulnificus
reportedProperty: Kd

Inquiry: Give Kd (HLA-A*31:01) of the following sequence: QSDIAGAIH
Reply text: ≥ 20 µM

Inquiry: Lookup: Kd / HLA-A*31:01 / EEVWRDPYL
Reply text: ≥ 20 µM

====

Molecular target: HLA-B*44:03
Assay: IEDB peptide-MHC binding, purified MHC/competitive/radioactivity; filed as Kd, often an IC50 or EC50 that approximates it; bounds were set here for any values at or beyond the usual limits of such assays
Conditions: source organism: Mammarenavirus guanaritoense
reportedProperty: Kd (µM)
Give just the number in µM; leave the unit off.

Inquiry: Endpoint output: Kd of LEREQIPTLI . Value?
Reply text: 12.8

====

Target: HLA-B*57:01
Test: IEDB peptide-MHC binding, purified MHC/competitive/fluorescence; filed as Kd, often an IC50 or EC50 that approximates it; bounds were set here for any values at or beyond the usual limits of such assays
Settings: source organism: Human immunodeficiency virus 1
pKd: −log10 of the molar value.
reportedProperty: pKd

Inquiry: Given the entry GTEEIRSLY , report its measured pKd.
Reply text: ≤ 4.70

====

Biological target: HLA-A*24:03
Assay: IEDB peptide-MHC binding, purified MHC/competitive/fluorescence; filed as Kd, often an IC50 or EC50 that approximates it; bounds were set here for any values at or beyond the usual limits of such assays
Conditions: source organism: Bacillus anthracis str. A0488
reportedProperty: Kd (nM)
The figure you give is taken to be in nM; do not add the unit.

Inquiry: Report Kd for YYVMGGAFL tested on HLA-A*24:03.
Reply text: 0.3

====

Target: HLA-A*26:01
Experiment: IEDB peptide-MHC binding, purified MHC/competitive/fluorescence; filed as Kd, often an IC50 or EC50 that approximates it; bounds were set here for any values at or beyond the usual limits of such assays
Details: source organism: Salmonella enterica subsp. enterica serovar Typhi
reportedProperty: Kd (nM)
Value expressed in nM; do not type the unit.

Inquiry: Entry MSAIVSCRY : reported Kd = ?
Reply text: 235
